# TARGET: D168A mutant of the HCV NS3/4A 1b protease enzyme (Hepatitis C virus genotype 1b, UniProt P26663, D1194A)
# Construct: 10× stocks of NS3/4A protease enzyme from Bioenza (Mountain View, Calif.); purchased Bioenza (Mountain View, Calif.)
# PROTOCOL_TEXT: HCV Protease FRET Assay (IC50_APP), D168A mutant
# Format: biochemical
# REPORTED_CONDITIONS: apparent IC50, D168A mutant; read-out: IC50_APP, HCV D168A
Please go through the items and note down their IC50.

**Q:** Requested field: IC50. Item: C#Cc1ccc(S(=O)(=O)NC(=O)[C@@]2(NC(=O)[C@@H]3C[C@@H](Oc4cc(-c5ccccc5)nc5cc(OC)ccc45)CN3C(=O)[C@H](CNC(=O)C=C)NC(=O)OC(C)(C)C)C[C@H]2C=C)cc1 [Compound I-61]
**A:** 1000 to 10000 nM

**Q:** Requested field: IC50. Item: C=CC(=O)NC[C@H](NC(=O)CCCC[C@H]1SC[C@H]2NC(=O)N[C@H]21)C(=O)N1C[C@H](Oc2nccc3cc(OC)ccc23)C[C@H]1C(=O)N[C@]1(C(=O)NS(=O)(=O)C2CC2)C[C@H]1C=C [Compound I-103]
**A:** 10 to 100 nM

**Q:** Requested field: IC50. Item: C=CC(=O)N[C@H](CC(C)C)C(=O)N1C[C@H](Oc2nccc3cc(OC)ccc23)C[C@H]1C(=O)N[C@]1(C(=O)NS(=O)(=O)C2CC2)C[C@H]1C=C [Compound I-105]
**A:** 100 to 1000 nM

**Q:** Requested field: IC50. Item: C=C[C@@H]1C[C@]1(NC(=O)[C@@H]1C[C@@H](Oc2nccc3cc(OC)ccc23)CN1C(=O)[C@H](CC(=O)C=C(C)C)NC(=O)OC(C)(C)C)C(=O)NS(=O)(=O)C1CC1 [Compound I-129]
**A:** 100 to 1000 nM

**Q:** Requested field: IC50. Item: C=CC(=O)N(C)C[C@H](NC(=O)OC(C)(C)C)C(=O)N1C[C@H](Oc2cc(-c3ccccc3)nc3cc(OC)ccc23)C[C@H]1C(=O)N[C@]1(C(=O)NS(=O)(=O)C2CC2)C[C@H]1C=C [Compound I-52]
**A:** 1000 to 10000 nM

**Q:** Requested field: IC50. Item: C=CC(=O)N(C)CC[C@H](NC(=O)OC1CCCC1)C(=O)N1C[C@H](Oc2cc(-c3ccccc3)nc3cc(OC)ccc23)C[C@H]1C(=O)N[C@]1(C(=O)NS(=O)(=O)C2CC2)C[C@H]1C=C [Compound I-85]
**A:** 10 to 100 nM

**Q:** Requested field: IC50. Item: C=C[C@@H]1C[C@]1(NC(=O)[C@@H]1C[C@@H](Oc2nccc3cc(OC)ccc23)CN1C(=O)[C@H](CC(=O)/C(C)=C/C)NC(=O)OC(C)(C)C)C(=O)NS(=O)(=O)C1CC1 [Compound I-133]
**A:** 100 to 1000 nM

**Q:** Requested field: IC50. Item: C=C[C@@H]1C[C@]1(NC(=O)[C@@H]1C[C@@H](Oc2cc(-c3ccccc3)nc3cc(OC)ccc23)CN1C(=O)[C@H](CNC(=O)C(C)Br)NC(=O)OC(C)(C)C)C(=O)NS(=O)(=O)c1ccccc1 (stereo partly shown) [Compound I-22]
**A:** 1000 to 10000 nM

**Q:** Requested field: IC50. Item: C=C[C@@H]1C[C@]1(NC(=O)[C@@H]1C[C@@H](Oc2nccc3ccc(Br)cc23)CN1C(=O)[C@H](CCC(=O)C=C(C)C)NC(=O)OC(C)(C)C)C(=O)NS(=O)(=O)C1CC1 [Compound I-75]
**A:** 1000 to 10000 nM

**Q:** Requested field: IC50. Item: C=C[C@@H]1C[C@]1(NC(=O)[C@@H]1C[C@@H](Oc2cc(-c3ccccc3)nc3cc(OC)ccc23)CN1C(=O)[C@@H](NC(=O)OC(C)(C)C)[C@@H](C)OC(=O)/C=C/C)C(=O)NS(=O)(=O)C1CC1 [Compound I-50]
**A:** 100 to 1000 nM

**Q:** Requested field: IC50. Item: C=CC(=O)NC[C@H](NC(=O)OC1CCCC1)C(=O)N1C[C@H](Oc2nccc3ccc(-c4cccs4)cc23)C[C@H]1C(=O)N[C@]1(C(=O)NS(=O)(=O)C2CC2)C[C@H]1C=C [Compound I-88]
**A:** 100 to 1000 nM

**Q:** Requested field: IC50. Item: C=CC1CC1(NC(=O)C1CC(n2nnc(-c3ccc(OC)cc3)n2)CN1C(=O)C(CCC(=O)C=C(C)C)NC(=O)OC(C)(C)C)C(=O)NS(=O)(=O)C1CC1 (stereo not shown) [Compound I-107]
**A:** 1000 to 10000 nM

**Q:** Requested field: IC50. Item: C=C[C@@H]1C[C@]1(NC(=O)[C@@H]1C[C@@H](Oc2nc3ccccc3nc2-c2cccs2)CN1C(=O)[C@H](CCC(=O)C=C(C)C)NC(=O)OC(C)(C)C)C(=O)NS(=O)(=O)C1CC1 [Compound I-110]
**A:** 1000 to 10000 nM

**Q:** Requested field: IC50. Item: C=C[C@@H]1C[C@]1(NC(=O)[C@@H]1C[C@@H](Oc2nccc3cc(OC)ccc23)CN1C(=O)[C@H](CCC(=O)/C=C/C1CCCC1)NC(=O)OC(C)(C)C)C(=O)NS(=O)(=O)C1CC1 [Compound I-141]
**A:** 100 to 1000 nM

**Q:** Requested field: IC50. Item: C=CC(=O)N[C@H](C(=O)N1C[C@H](Oc2nccc3cc(OC)ccc23)C[C@H]1C(=O)N[C@]1(C(=O)NS(=O)(=O)C2CC2)C[C@H]1C=C)C(C)(C)O [Compound I-131]
**A:** 10 to 100 nM

**Q:** Requested field: IC50. Item: C=CC(=O)N[C@H](C)C(=O)N1C[C@H](Oc2nccc3cc(OC)ccc23)C[C@H]1C(=O)N[C@]1(C(=O)NS(=O)(=O)C2CC2)C[C@H]1C=C [Compound I-100]
**A:** 10 to 100 nM

**Q:** Requested field: IC50. Item: C=C[C@@H]1C[C@]1(NC(=O)[C@@H]1C[C@@H](Oc2nccc3cc(OC)ccc23)CN1C(=O)[C@H](CCC(=O)/C=C\C(C)(C)C)NC(=O)OC(C)(C)C)C(=O)NS(=O)(=O)C1CC1 [Compound I-136]
**A:** 100 to 1000 nM

**Q:** Requested field: IC50. Item: C=C[C@@H]1C[C@]1(NC(=O)[C@@H]1C[C@@H](Oc2nccc3ccccc23)CN1C(=O)[C@H](CCC(=O)C=C(C)C)NC(=O)OC(C)(C)C)C(=O)NS(=O)(=O)C1CC1 [Compound I-86]
**A:** 100 to 1000 nM

**Q:** Requested field: IC50. Item: C=CCN(C[C@H](NC(=O)OC(C)(C)C)C(=O)N1C[C@H](Oc2nccc3cc(OC)ccc23)C[C@H]1C(=O)N[C@]1(C(=O)NS(=O)(=O)C2CC2)C[C@H]1C=C)C(=O)C=C [Compound I-99]
**A:** 1000 to 10000 nM
